# TARGET_OR_SYSTEM: IRAK4 (Homo sapiens (Human), UniProt Q9NWZ3)
# Sequence (Q9NWZ3 whole entry, species assumed): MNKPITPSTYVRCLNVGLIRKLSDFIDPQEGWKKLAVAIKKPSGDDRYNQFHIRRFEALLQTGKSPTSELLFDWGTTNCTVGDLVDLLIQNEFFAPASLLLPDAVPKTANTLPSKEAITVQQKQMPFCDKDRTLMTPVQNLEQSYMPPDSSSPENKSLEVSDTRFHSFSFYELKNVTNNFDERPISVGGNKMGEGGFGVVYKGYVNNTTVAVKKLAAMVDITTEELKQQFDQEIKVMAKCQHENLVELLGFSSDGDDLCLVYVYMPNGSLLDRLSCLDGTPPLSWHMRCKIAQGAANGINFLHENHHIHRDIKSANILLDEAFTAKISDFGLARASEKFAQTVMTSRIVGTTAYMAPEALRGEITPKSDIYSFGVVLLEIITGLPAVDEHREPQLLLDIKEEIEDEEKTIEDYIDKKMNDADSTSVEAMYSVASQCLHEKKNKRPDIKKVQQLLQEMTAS
# ASSAY_EXPLANATION: IRAK4 Inhibition Assay
# Type: biochemical
# PROTOCOL_CONDITIONS: ATP 500 μM; IRAK4 0.6 nM
OUTCOME_MEASURE: IC50 (nM)
Give the number; nM is assumed, so skip it.

*Q* # query: IC50 of entry "CC(C)Nc1cc(-n2ncc3cc(C#N)c(N)nc32)ncc1-c1cn(C[C@H](C)O)nn1"
*A* 5

*Q* # query: IC50 of entry "CC(C)Nc1cc(-n2ncc3cc(C#N)cnc32)ncc1-c1cn(CCCO)nn1"
*A* 6

*Q* # query: IC50 of entry "CC(C)Nc1cc(-n2ncc3cc(C#N)cnc32)ncc1-c1cc(CCC(C)(C)O)on1"
*A* 2

*Q* # query: IC50 of entry "CC(=O)N1CC(c2cn(-c3cnc(-n4ncc5cc(C#N)cnc54)cc3NC(C)C)nn2)C1"
*A* 5

*Q* # query: IC50 of entry "CC(C)Nc1cc(-n2ncc3cc(C#N)cnc32)ncc1-c1cn(Cc2cccnc2)cn1"
*A* 30

*Q* # query: IC50 of entry CC(=O)N1CC[C@@H](n2cc(-c3cnc(-n4ncc5cc(C#N)cnc54)cc3NC(C)C)nn2)[C@H](O)C1 (single isomer, unassigned)
*A* 4

*Q* # query: IC50 of entry CC(C)Nc1cc(-n2ncc3cc(C#N)cnc32)ncc1-c1cn(CC(O)C(F)(F)F)nn1 (centres unmarked)
*A* 7

*Q* # query: IC50 of entry "CC(C)Nc1cc(-n2ncc3cc(C#N)cnc32)ncc1-n1cc(C2CCN(S(C)(=O)=O)CC2)nn1"
*A* 7

*Q* # query: IC50 of entry "CC(C)Nc1cc(-n2ncc3cc(C#N)cnc32)ncc1-c1cn([C@H]2CCN(C(=O)c3cccnc3)C[C@H]2O)nn1"
*A* 20

*Q* # query: IC50 of entry "CCCn1cc(-c2cnc(-n3ncc4cc(C#N)c(N)nc43)cc2NC2CCOCC2)nn1"
*A* 3

*Q* # query: IC50 of entry CC(C)Nc1cc(-n2ncc3cc(C#N)cnc32)ncc1-c1cn(CC(O)CO)nn1 (centres unmarked)
*A* 12

* * *

# ASSAY_EXPLANATION: Caco-2 Permeability Assay
# Format: in vitro ADME
# PROTOCOL_CONDITIONS: human, Caco-2, test compound 3 μM
For each record, write down the corresponding Papp at 2 h, 3 µM.
Give the number; ×10⁻⁶ cm/s is assumed, so skip it.

*Q* # query: Papp at 2 h, 3 µM of entry "COC(=O)N1CCC(c2cn(-c3cnc(-n4ncc5cc(C#N)cnc54)cc3NC(C)C)nn2)CC1"
*A* 17.9

*Q* # query: Papp at 2 h, 3 µM of entry "N#Cc1cnc2c(cnn2-c2cc(NC3CC3)c(-n3cc(C4CCOCC4)nn3)cn2)c1"
*A* 41

*Q* # query: Papp at 2 h, 3 µM of entry "CCCn1cc(-c2cnc(-n3ncc4cc(C#N)cnc43)cc2NC(C)C)nn1"
*A* 22.5

*Q* # query: Papp at 2 h, 3 µM of entry "CC(C)Nc1cc(-n2ncc3cc(C#N)cnc32)ncc1-c1cn(CCCCF)nn1"
*A* 30

*Q* # query: Papp at 2 h, 3 µM of entry CCC(C)(O)Cc1cn(-c2cnc(-n3ncc4cc(C#N)cnc43)cc2NC(C)C)nn1 (centres unmarked)
*A* 10.8

*Q* # query: Papp at 2 h, 3 µM of entry "CC(C)Nc1cc(-n2ncc3cc(C#N)cnc32)ncc1-n1cc(CCCCO)nn1"
*A* 6.4

*Q* # query: Papp at 2 h, 3 µM of entry "CC(C)Nc1cc(-n2ncc3cc(C#N)cnc32)ncc1-c1cn(C(C)C)nn1"
*A* 19.3

*Q* # query: Papp at 2 h, 3 µM of entry CC(C)(O)CCc1cn(-c2cnc(-n3ncc4cc(C#N)cnc43)cc2NC2CCC(F)C2)nn1 (centres unmarked)
*A* 4.5

*Q* # query: Papp at 2 h, 3 µM of entry "CCOC(=O)N[C@H]1CC[C@H](n2cc(-c3cnc(-n4ncc5cc(C#N)cnc54)cc3NC(C)C)nn2)CC1"
*A* 9.4

*Q* # query: Papp at 2 h, 3 µM of entry "N#Cc1cnc2c(cnn2-c2cc(NC3CC3)c(-c3cn(CCN4CCOCC4)nn3)cn2)c1"
*A* 22.9

*Q* # query: Papp at 2 h, 3 µM of entry "CC(=O)N1CCC(F)(c2cc(-c3cnc(-n4ncc5cc(C#N)cnc54)cc3NC(C)C)on2)CC1"
*A* 32.2

*Q* # query: Papp at 2 h, 3 µM of entry "CCCn1cc(-c2cnc(-n3ncc4cc(C#N)cnc43)cc2NC2CCOCC2)nn1"
*A* 28.8
